- assayTarget: Tie2 (Homo sapiens)
- Construct: amino acids of the intracellular domain 776-1124
- Sequence (Q02763 776-1124): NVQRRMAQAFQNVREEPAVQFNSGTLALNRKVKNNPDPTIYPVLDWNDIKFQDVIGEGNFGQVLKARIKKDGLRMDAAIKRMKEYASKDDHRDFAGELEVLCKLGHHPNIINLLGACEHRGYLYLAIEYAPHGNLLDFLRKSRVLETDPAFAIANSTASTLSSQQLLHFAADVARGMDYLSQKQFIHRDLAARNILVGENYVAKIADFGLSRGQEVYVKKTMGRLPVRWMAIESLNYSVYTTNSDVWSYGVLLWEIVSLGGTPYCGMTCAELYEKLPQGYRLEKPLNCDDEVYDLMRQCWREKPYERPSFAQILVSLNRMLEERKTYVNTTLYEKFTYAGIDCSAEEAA
- testSummary: Tie2 kinase test, phosphorylation of PLC with GST-Tie2
- conditionLabel: GST-Tie2 intracellular domain 776-1124
Structures can show the parent of a compound that is named as a salt.
experimentalEndpoint: IC50 (nM)

CCN(CC)Cc1ccc(C(=O)Nc2n[nH]c3sc(C(=O)NN(C)c4ccccc4)cc23)cc1 [Example 15a, trifluoroacetate] = 623
CCN(CC)CCNCc1ccc(C(=O)Nc2n[nH]c3sc(C(=O)NN(C)c4ccc(Cl)cc4)cc23)cc1 [Example 23b] = 543

(a) CN(NC(=O)c1cc2c(NC(=O)c3ccc(CN4CCCCC4)cc3)n[nH]c2s1)c1ccccc1 [Example 17a]
(b) COc1ccc(C(=O)Nc2n[nH]c3sc(C(=O)NNc4ccccc4)cc23)cc1 [Example 1]
Quick check, higher IC50 between a and b ? Write down the label of the entry you select.
a
(a: 482 nM, b: 117 nM)
